Source listed as the supplement of paper PMC10065799.

- tested_system: SHP2-C SH2;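 further: peptide library displayed on the E. coli surface as eCPX fusions, selected cells deep-sequenced, score is each peptide's frequency after selection divided by its frequency in the input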
- method_summary: SH2 binding enrichment of the phosphorylated peptide, bacterial display (enrichment ratio); higher = better substrate or ligand; peptides without Tyr show the background
measurement_label: SH2 binding enrichment

{"columns": ["record_sequence", "tested_system", "SH2 binding enrichment"],
 "data": [
  ["YALAEYTEVKT [ALDH1A3_Y497]", "SHP2-C SH2", 4.27]
]}

P = VASIFYTLVIP [OR8K3_Y277]
Q = VYYGSYSCPYG [NKAP_Y104_R106C]
Challenge: Sort P and Q by SH2 binding enrichment descending and give the first. Your answer should be the label of the entry you select.
Response given: P
(P: 1.51, Q: 0.715)
